Reported Binding Ratio (Sample over unstained MFIs) values for the following binders.
- target of assay: T1, human IL-2Rγ expressed on cells (NK-92, Jurkat) (human) (UniProt P31785)
- T1 sequence (looked up): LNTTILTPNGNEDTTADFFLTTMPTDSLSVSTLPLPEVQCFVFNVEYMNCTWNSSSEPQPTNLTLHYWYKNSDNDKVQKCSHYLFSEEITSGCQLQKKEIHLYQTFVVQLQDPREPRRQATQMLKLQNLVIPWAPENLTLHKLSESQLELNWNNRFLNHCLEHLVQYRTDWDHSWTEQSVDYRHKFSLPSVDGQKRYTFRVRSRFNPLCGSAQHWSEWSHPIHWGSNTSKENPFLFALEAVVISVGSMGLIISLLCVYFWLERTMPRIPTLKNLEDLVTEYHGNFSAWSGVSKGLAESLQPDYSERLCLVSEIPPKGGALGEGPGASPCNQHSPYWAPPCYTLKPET
- assay overview: flow cytometry on Jurkat cells (endogenous human IL-2Rg), antibody 10 ug/ml

Consider the worked cases shown below.
H4H12857P (antibody, human IgG4 S228P, kappa, V domains shown) VH: EVQLVESGGGVVRPGGSLRLSCAASGFTFDDFDMSWVRQGPGKGLEWVSGINWHGSSTGYADSVKGRFTISRDNAKNSLYLQMSSLRAEDTALYHCVRGGTIVGATTPLDYWGQGTLVTVSS VL: DIQMTQSPSSLSASVGDRVTMTCRASRTISSYLSWYQQKSGKVPNLLIFGASSLQSGVPSRFSASGSGTDFTLIISSLQPEDFATYYCQQSYSSPLTFGGGTKVEIKR: 1
H4H12874P (antibody, human IgG4 S228P, kappa, V domains shown) VH: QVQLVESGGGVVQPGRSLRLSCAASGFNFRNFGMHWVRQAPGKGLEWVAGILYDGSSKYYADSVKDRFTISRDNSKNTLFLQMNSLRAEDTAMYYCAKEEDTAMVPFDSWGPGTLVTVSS VL: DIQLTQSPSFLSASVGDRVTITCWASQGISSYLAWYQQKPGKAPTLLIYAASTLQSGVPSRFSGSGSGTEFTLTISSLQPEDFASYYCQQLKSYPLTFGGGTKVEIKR: 6

Now for a further binder.
Item: H4H12899P (antibody, human IgG4 S228P, kappa, V domains shown) VH: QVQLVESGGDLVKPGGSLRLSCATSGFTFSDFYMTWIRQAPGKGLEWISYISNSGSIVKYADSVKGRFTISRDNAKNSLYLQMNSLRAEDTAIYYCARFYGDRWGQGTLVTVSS VL: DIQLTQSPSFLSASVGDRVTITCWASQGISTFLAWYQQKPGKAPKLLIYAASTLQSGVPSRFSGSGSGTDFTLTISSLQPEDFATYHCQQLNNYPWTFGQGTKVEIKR | Binding Ratio (Sample over unstained MFIs): 1
